Listed here are molecules together with their documented hydrolysis rate (relative value).
ASSAY_SYSTEM: human pancreatic α-amylase (HPA) (Homo sapiens, UniProt P04746)
Sequence (P04746 16-511): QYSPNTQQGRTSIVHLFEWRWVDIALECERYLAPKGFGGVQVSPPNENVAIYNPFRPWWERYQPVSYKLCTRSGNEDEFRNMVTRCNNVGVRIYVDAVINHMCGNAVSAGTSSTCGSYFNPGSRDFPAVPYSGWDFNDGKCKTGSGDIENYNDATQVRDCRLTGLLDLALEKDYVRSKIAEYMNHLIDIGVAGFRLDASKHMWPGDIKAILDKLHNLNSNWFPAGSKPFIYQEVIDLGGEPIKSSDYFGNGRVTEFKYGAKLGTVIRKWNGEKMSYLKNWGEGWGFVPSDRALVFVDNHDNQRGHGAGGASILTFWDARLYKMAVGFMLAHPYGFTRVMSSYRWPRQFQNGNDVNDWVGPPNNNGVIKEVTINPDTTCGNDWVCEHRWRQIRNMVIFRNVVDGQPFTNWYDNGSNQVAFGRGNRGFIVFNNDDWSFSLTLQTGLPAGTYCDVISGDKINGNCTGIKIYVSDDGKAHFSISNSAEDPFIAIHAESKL
PROTOCOL_TEXT: Hydrolysis rate of substrates by α-amylase (relative to G5P)
Assay type: biochemical
CONDITION_SET: substrate 1.0 mM, pH 7, value of G5P taken as 1
From the text: […]
No unit in the answer, please; the number alone is enough.

Reference set (3 entries):
[
  {
    "MOLECULE": "O=[N+]([O-])c1ccc(O[C@H]2O[C@H](CO)[C@@H](O[C@H]3O[C@H](CO)[C@@H](O[C@H]4O[C@H](CO)[C@@H](O[C@H]5O[C@H](CO)[C@@H](O[C@H]6O[C@H](CO)[C@@H](O[C@H]7O[C@H](CO)[C@@H](O[C@H]8O[C@H](CO)[C@@H](O)[C@H](O)[C@H]8O)[C@H](O)[C@H]7O)[C@H](O)[C@H]6O)[C@H](O)[C@H]5O)[C@H](O)[C@H]4O)[C@H](O)[C@H]3O)[C@H](O)[C@H]2O)cc1 [Substrate G7P]",
    "hydrolysis rate (relative value)": 1.8
  },
  {
    "MOLECULE": "O=[N+]([O-])c1ccc(O[C@H]2O[C@H](CO)[C@@H](O[C@H]3O[C@H](CO)[C@@H](O[C@H]4O[C@H](CO)[C@@H](O[C@H]5O[C@H](CO)[C@@H](O[C@H]6O[C@H](COCc7ccccc7)[C@@H](O)[C@H](O)[C@H]6O)[C@H](O)[C@H]5O)[C@H](O)[C@H]4O)[C@H](O)[C@H]3O)[C@H](O)[C@H]2O)cc1 [BG5P]",
    "hydrolysis rate (relative value)": 1.4
  },
  {
    "MOLECULE": "O=[N+]([O-])c1ccc(O[C@H]2O[C@H](CO)[C@@H](O[C@H]3O[C@H](CO)[C@@H](O[C@H]4O[C@H](CO)[C@@H](O[C@H]5O[C@H](CO)[C@@H](O[C@H]6O[C@@H]7COC(c8ccccc8)O[C@H]7[C@H](O)[C@H]6O)[C@H](O)[C@H]5O)[C@H](O)[C@H]4O)[C@H](O)[C@H]3O)[C@H](O)[C@H]2O)cc1 (stereo partly shown) [BDG5P]",
    "hydrolysis rate (relative value)": 0
  }
]

Alright, here's another molecule for you.
Record for O=[N+]([O-])c1ccc(O[C@H]2O[C@H](CO)[C@@H](O[C@H]3O[C@H](CO)[C@@H](O[C@H]4O[C@H](CO)[C@@H](O[C@H]5O[C@H](CO)[C@@H](O[C@H]6O[C@H](CO)[C@@H](O)[C@H](O)[C@H]6O)[C@H](O)[C@H]5O)[C@H](O)[C@H]4O)[C@H](O)[C@H]3O)[C@H](O)[C@H]2O)cc1 [Substrate G5P] under target or system human pancreatic α-amylase (HPA) (Homo sapiens, UniProt P04746): hydrolysis rate (relative value) reported as 1.0
